# STUDY TARGET: FXR (Homo sapiens (Human))
# ASSAY TEXT: FXR EC50 (FXR agonist potency reported with each Example)
# Type: cell-based
Each record is given met if its reported EC50 is strictly below 400 nM. Records at or above 400 nM are given not met.

Answered cases to consult:
Problem: For the compound O=C(C1CC(F)(F)C1)N(CC12CCC(c3cc(C(F)(F)F)ccn3)(CC1)CC2)c1cccc(-c2nc(C3CC3)no2)c1 , is EC50 under 400 nM?
Result: not met

Problem: Lab log: compare recorded EC50 with 400 nM; is it strictly lower for O=C(N(CC12CCC(c3nc(C4CC4)no3)(CC1)CC2)c1cccc(-c2noc(C3CC(F)(F)C3)n2)c1)C12CC(F)(C1)C2 ?
Result: met

Problem: API: query returns whether the compound falls strictly under 400 nM in EC50. Query: Cn1nc(C23CCC(CN(C(=O)C45CC(F)(C4)C5)c4cccc(-c5noc(C(F)F)n5)c4)(CC2)CC3)cc1C1CC1
Result: met

Others:
Problem: Field: below-cutoff. Rule: recorded EC50 strictly less than 400 nM. Subject: O=C(N(CC12CCC(c3nc(C4CC4)no3)(CC1)OC2)c1cccc(-c2noc(C(F)F)n2)c1)C12CC(F)(C1)C2
Result: met

Problem: Is EC50 of O=C(C1CC(C(F)F)C1)N(CC12CCC(c3nc(C4CC4)no3)(CC1)OC2)c1cccc(-c2nc(C3CC3)no2)c1 (stereo not drawn) strictly below 400 nM?
Result: not met

====

Recorded pEC50 values for a group of molecules are listed next.
# STUDY TARGET: UniProtKB Q96RI1
# ASSAY TEXT: FXR EC50 (FXR agonist potency reported with each Example)
# Assay type: cell-based
Here pEC50 is given on a logarithmic scale as minus log10 of the concentration in mol/L.

Before answering, review these 5 worked examples.
Problem: Which pEC50 value is on record for O=C(N(CC12CCC(c3nc(C4CC4)no3)(CC1)CC2)c1cccc(-c2nc(CC3CC3)no2)c1)C12CC(F)(C1)C2 ?
Result: 6.85

Problem: // query pEC50 value for entry CC(C)(C)c1noc(C23CCC(CN(C(=O)C45CC(F)(C4)C5)c4cccc(-c5cnn(S(=O)(=O)C6CC6)c5)c4)(CC2)OC3)n1
Result: 6.21

Problem: Quick one: pEC50 for O=C(C1CC(C(F)F)C1)N(CC12CCC(c3nnc(C4CC4)o3)(CC1)CC2)c1cccc(-c2nc(C3CC3)no2)c1 (stereo not drawn) ?
Result: 6.42

Problem: What does the record list as pEC50 for COCc1nc(-c2cccc(N(CC34CCC(c5nc(C6CC6)no5)(CC3)CC4)C(=O)C3CC(C(F)F)C3)c2)cs1 (stereo not drawn) ?
Result: 6.47

Problem: Which value of pEC50 has been reported for O=C(C1CC(F)(F)C1)N(CC12CCC(c3nc(C4CC4)no3)(CC1)CC2)c1cccc(-c2nnc(C3CC3)o2)c1 in the records?
Result: 6.15

Others:
Problem: Which pEC50 value is on record for CCOc1ncc(-c2cccc(N(CC34CCC(c5ccc(C(C)(C)C#N)cc5)(CC3)OC4)C(=O)C34CC(F)(C3)C4)c2)o1 ?
Result: 7.60

====

# STUDY TARGET: FXR (Homo sapiens (Human), UniProt Q96RI1)
# Sequence (Q96RI1 262-486): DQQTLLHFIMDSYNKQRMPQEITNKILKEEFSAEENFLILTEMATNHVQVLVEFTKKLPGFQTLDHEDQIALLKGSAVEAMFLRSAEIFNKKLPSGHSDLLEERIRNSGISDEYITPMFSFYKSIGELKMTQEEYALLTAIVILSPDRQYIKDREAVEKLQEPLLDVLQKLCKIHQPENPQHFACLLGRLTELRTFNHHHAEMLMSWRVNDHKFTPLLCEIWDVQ
# ASSAY TEXT: transient human FXR/Gal4-luciferase reporter assay
# Assay type: cell-based
# EXPERIMENTAL CONDITIONS: Gal4-hFXR fusion construct, HEK293 reporter cells; response relative to 8 μM GW-4064
Below, each entry is listed with its recorded pEC50.
FYI, pEC50 means -log10 of a concentration in mol per litre.

Problem: Given the entry Cn1nc(C23CCC(CN(C(=O)C45CC(F)(C4)C5)c4cccc(-c5cnc6nc(C7CC7)sc6c5)c4)(CC2)CC3)cc1C1CC1 , report its measured pEC50.
Result: 6.33

Problem: pEC50 lookup needed for O=C(N(CC12CCC(c3nc(C4CC4)no3)(CC1)CC2)c1cccc(-c2nc3cc(F)ccc3o2)c1)C12CC(F)(C1)C2 , thanks.
Result: 6.66

Now look at this entry.
Problem: // lookup pEC50 for N#Cc1ccc(-c2cccc(N(CC34CCC(c5nc(C6CC6)no5)(CC3)CC4)C(=O)C34CC(F)(C3)C4)c2)c2cccnc12
Result: 6.18
